# Target or system: Yap3 (UniProt P38749)
# Sequence: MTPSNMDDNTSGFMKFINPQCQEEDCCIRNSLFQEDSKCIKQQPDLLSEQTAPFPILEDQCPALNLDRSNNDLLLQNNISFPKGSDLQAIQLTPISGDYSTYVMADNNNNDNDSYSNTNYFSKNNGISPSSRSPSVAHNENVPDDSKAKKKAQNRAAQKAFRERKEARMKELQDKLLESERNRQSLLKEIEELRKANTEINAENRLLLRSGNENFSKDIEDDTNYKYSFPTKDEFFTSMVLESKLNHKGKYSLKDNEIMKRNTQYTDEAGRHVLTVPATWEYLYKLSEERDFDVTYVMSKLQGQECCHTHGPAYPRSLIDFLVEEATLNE
# Test details: PBM E-score (8-mer binding enrichment) (E-score (-0.5 to 0.5)); higher = stronger / more preferred TF binding
# Reported conditions: protein concentration: 100 nM; construct: GST-full length
In all, about 33,000 sequences were measured (“E-score (-0.5 to 0.5)”: median about -0.0034, highest 2% from about 0.25 on). Shown is part of a subset that was picked to be rich in the highest values.
Everything with PBM E-score lower than 0.1 is n; everything else, including exactly 0.1, is y.

{"Sequence chain": "CGTCGCTA", "Assigned label": "y"}
{"Sequence chain": "GCAATGTA", "Assigned label": "n"}
{"Sequence chain": "AACTATAG", "Assigned label": "n"}

[in] I'd appreciate it if you could say whether AATATTGC has PBM E-score at least equal to 0.1.
[out] y

[in] Hi, just wondering whether ATTAAAAC shows PBM E-score of 0.1 or higher.
[out] y

[in] // inclusive: PBM E-score at least 0.1? input: GCTATTAC
[out] y

[in] Kindly determine if PBM E-score recorded for ATTAAATG is above or exactly 0.1.
[out] y

[in] Hi team, for ACCAGGTC , is the recorded PBM E-score at or above 0.1?
[out] n

[in] Identify whether the reported PBM E-score of the following sequence is 0.1 or greater: CATGTAAC
[out] n

[in] Entry AAAGTACA : is its PBM E-score no less than 0.1?
[out] y

[in] # bool: PBM E-score of AATATTCG >= 0.1
[out] y

[in] Item GATATTCC with PBM E-score of 0.1 or above?
[out] y

[in] Entry ACGCTATC : is its PBM E-score no less than 0.1?
[out] y

[in] Assess whether reported PBM E-score for AATATTCT sits at 0.1 or higher.
[out] y

[in] Evaluate GTTAAATA : PBM E-score at minimum 0.1?
[out] y

[in] Does PBM E-score meet or surpass 0.1 for CGTCAATC ?
[out] n

[in] PBM E-score >= 0.1 for CAGAAGCA ?
[out] y

[in] In plain terms: is recorded PBM E-score at least 0.1 for ATACAAGG ?
[out] y

[in] Assess whether reported PBM E-score for CATGACAA sits at 0.1 or higher.
[out] y

[in] # bool: PBM E-score of ACCGCTGG >= 0.1
[out] n

[in] In plain terms: is recorded PBM E-score at least 0.1 for AGAAATCA ?
[out] n

This collection of values is drawn from the supplement of paper PMC3334620.
